Where these numbers come from: ChEMBL document CHEMBL3621190

Biological target: Gamma-secretase
Assay: Inhibition of gamma-secretase in human H4 cells expressing human wild type […] cDNA assessed as reduction in amyloid beta peptides incubated for 16 to 18 hrs by ELISA method
observation.type: pIC50
// scale note: pIC50 = -log10(conc_M); give the bare number

Enquiry: Recorded pIC50 for COc1cc(N2CCC(Nc3ncc4c(n3)N(c3ccc(Cl)cc3)CCO4)CC2)ccn1 , please?
Return: 7.60

Enquiry: Also COc1cc(N2CCC(Nc3ncc4c(n3)N(c3ccccc3OC(F)(F)F)CCO4)CC2)ccn1 ?
Return: 7.68

Enquiry: And then COc1cc(N2CCC(Nc3ncc4c(n3)N(c3cc(F)c(F)c(F)c3)CCO4)CC2)ccn1 , what is it?
Return: 7.25

Enquiry: Now the same for COc1cc(N2CCC(Nc3ncc4c(n3)N(c3cc(F)cc(F)c3)CCO4)CC2)ccn1
Return: 7.59

Enquiry: What would you report for Clc1cc(N2CCC(Nc3ncc4c(n3)N(c3ccccc3)CCO4)CC2)ccn1 ?
Return: 7.27
